Target of assay: T1, human G protein-coupled receptor class C group 5 member D (GPRC5D) protein (human, UniProt Q9NZD1 1-345)
T1 construct: whole, on cells; The same protein on several cell lines; also called HuGPRC5D; CHO-GPRC5D
T1 sequence (Q9NZD1 whole entry): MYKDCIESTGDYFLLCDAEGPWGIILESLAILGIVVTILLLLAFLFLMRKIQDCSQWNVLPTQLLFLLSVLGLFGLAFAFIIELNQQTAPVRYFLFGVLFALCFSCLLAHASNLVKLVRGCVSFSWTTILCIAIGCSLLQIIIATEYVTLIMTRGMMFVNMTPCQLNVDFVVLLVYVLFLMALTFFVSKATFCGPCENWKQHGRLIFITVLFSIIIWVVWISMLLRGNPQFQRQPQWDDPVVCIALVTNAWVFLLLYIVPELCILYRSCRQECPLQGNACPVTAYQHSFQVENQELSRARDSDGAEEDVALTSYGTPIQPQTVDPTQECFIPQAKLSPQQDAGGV
Assay details: flow cytometry (FACS) on CHO-GPRC5D cells
Listed here: items and their measured EC50.
All answers are understood in µg/mL, so give the number only.

Example results:
Binder	EC50, µg/mL
4A2 VHH (VHH) VHH: EVQLVESGGGLVQPGGSLRLSCAASGFIFSRYDMGWFRQAPGKGRELVAVITWGGGSTYYPDSVEGRFTISRDNAKRMVYLQMNSLRAEDTAVYYCAARSASAYRTGRLEYNYWGQGTQVTVSS	0.0687
3B5 VHH (VHH, From the synthetic nanobody library NanoOri_1.0 (Caplacizumab backbone)) VHH: EVQLVESGGGLVQPGGSLRLSCAASGFIFSRYGMGWFRQAPGKGRELVAAINWSDGTTYYPDSVEGRFTISRDNAKRMVYLQMNSLRAEDTAVYYCAADRRLRSQTGYDYWGQGTQVTVSS	0.103
4B3 VHH (VHH, also called G5VHH2) VHH: EVQLVESGGGLVQPGGSLRLSCAASGLIFSRYVMGWFRQAPGKGRELVAFINSSGGSTNYPDSVEGRFTISRDNAKRMVYLQMNSLRAEDTAVYYCAASSRTSTTRGYNYWGQGTQVTVSS	0.18

# evaluate next
So for 3E7 VHH (VHH, also called G5VHH1) VHH: EVQLVESGGGLVQPGGSLRLSCAASGRIFSRDAMGWFRQAPGKGRELVAAINSSGGNTYYPDSVEGRFTISRDNAKRMVYLQMNSLRAEDTAVYYCAARGVRWTSTTAYGYNYWGQGTQVTVSS , the logged EC50 turned out to be 0.426

The reported numbers originate from patent US20250057950A1.
